growth inhibition by entry:
# TEST: NCI Yeast Anticancer Drug Screen. Data for the bub3 strain (AID 167)
# TEST CONDITIONS: S. cerevisiae bub3 mutant strain, at 50.0 µM, hits give high values
The panel holds about 79,000 compounds, 15% with a hit somewhere; the sample as a whole holds those more often.
Provide the reading as a plain figure in %.

Answered examples (3):
COMPOUND: O=C1CN(C=C(C(=O)c2ccccc2)C(=O)c2ccccc2)C(=S)N1
growth inhibition, %: -8.2

COMPOUND: C/C(=N/NC(N)=O)c1cn[nH]c1C
growth inhibition, %: 11.9

COMPOUND: CCCCCCCCCCCCSC(=O)Nc1ccc(C(=O)OCC)cc1
growth inhibition, %: -2.55

# return recorded growth inhibition for input CC(C)(c1ccc(O)c(Cl)c1)c1cc(Cl)c(O)c(S(=O)(=O)O)c1 1.15

# return recorded growth inhibition for input S=C(OCCCCCn1cnc2c(=S)nc[nH]c21)Oc1ccccc1 -5.25

# return recorded growth inhibition for input COc1ccc(/C=N/N=C/c2ccc(OC)cc2)cc1 -19.8

# return recorded growth inhibition for input CC1(C)CC(C)(C)CC(O)(C2(O)CC(C)(C)CC(C)(C)C2)C1 -5.4

# return recorded growth inhibition for input COc1cc2c(c3c1c(=O)c1ccccc1n3C)C=CC(C)(C)O2 4.75

# return recorded growth inhibition for input CC(O)C1C(C(=O)O)C2C(C)OC(=O)C12 (stereo not drawn) 2.45

# return recorded growth inhibition for input CCCCOCCOC(=O)Nc1cccc(Cl)c1 -0.3

# return recorded growth inhibition for input Cc1nc(C)c(N2CCN(CN)CC2)c(=O)[nH]1 14.3

# return recorded growth inhibition for input CCc1onc(-c2noc(CC)c2C)c1C -1.5

These measurements were taken from PubChem BioAssay (NCI).
